System: A549
Test: NCI tumour cell line growth inhibition, 48 h
The source made the active and inactive calls. Rule as the data show it: active = GI50 up to about 1.1 µM and inactive = higher.
measured metric: GI50

Qu. Query (compound): CC(=O)NC(CCCCNC(=O)OCc1ccccc1)C(=O)NCc1ccccc1 (stereo not given) ; field requested: GI50
Ans. > 100 µM (inactive)

Qu. Okay, and `C[C@]12CC[C@@H]3c4ccccc4CC[C@H]3[C@@H]1CC[C@@H]2O` ?
Ans. 99.3 µM (inactive)

Qu. Okay, and COC(=O)C(CCC(=O)CCl)N1C(=O)c2ccccc2C1=O (stereo not given) ?
Ans. 17.7 µM (inactive)

Qu. Okay, and c1ccc(C2(c3ccccc3)SSC3(S2)C2CC4CC(C2)CC3C4)cc1 (stereo not given) ?
Ans. > 100 µM (inactive)

Qu. Okay, and CC(=O)O[C@H]1CCC2[C@@H]3CCC4C(=O)c5oncc5C[C@]4(C)C3CC[C@@]21C (stereo not given in full) ?
Ans. > 100 µM (inactive)

====

Tested on: SF-268
Test: NCI tumour cell line growth inhibition, 48 h
Activity calls are given as the source filed them. No stated cut-off is given here; in the data, active = GI50 up to about 1.1 µM and inactive = higher. Positions of bridges follow the written chain, without caps; N, C: chain ends. Non-standard residues stand in square brackets, D forms with d. Residues, ends and D or L forms follow the SMILES beside them. *: point of attachment. Cbz = O=C(OCc1ccccc1)*; Aib = CC(C)(N)C(=O)O; OBn = c1ccc(CO*)cc1; βAla = NCCC(=O)O
measured metric: GI50

Qu. Query (compound): `COc1cccc(CCN2CCN(CCCc3ccccc3)CC2)c1` ; field requested: GI50
Ans. > 100 µM (inactive)

Qu. Okay, and CCCCCCCCCCCCCCCC(=O)OC1C(O)C(O)C(O)C(O)C12CO2 (centres undefined) ?
Ans. 34 µM (inactive)

Qu. Okay, and Cc1nn(C(=O)Cc2ccccc2)c2c1C(c1ccc(N(C)C)cc1)SC(=N)N2 (centres undefined) ?
Ans. > 100 µM (inactive)

Qu. Okay, and `Cc1ccc(Sc2cc([N+](=O)[O-])cc(Sc3ccc(C)cc3)c2Sc2ccc(C)cc2)cc1` ?
Ans. > 100 µM (inactive)

Qu. Okay, and COc1ccc(N2C(=O)CSC2c2cc3cc(Br)ccc3nc2Cl)cc1 (centres undefined) ?
Ans. > 50 µM (inactive)

Qu. Okay, and `O=C1/C(=C/c2ccc(OC(=O)c3ccccc3)cc2)CCC/C1=C\c1ccc(OC(=O)c2ccccc2)cc1` ?
Ans. > 100 µM (inactive)

Qu. Okay, and `Cc1ccnc2c1c(=O)c1ccccc1n2C` ?
Ans. 28 µM (inactive)

Qu. Okay, and CC1(C)NC(=O)C(NC(=O)C(CC(=O)OCc2ccccc2)NC(=O)OCc2ccccc2)CCCCNC(=O)CCNC1=O (centres undefined) (Cbz-D(OBn)K[Aib][βAla]; lactam 2-C; configuration not given here) ?
Ans. > 100 µM (inactive)

Qu. Okay, and COc1ccc(C(=O)C(c2ccc(OC)cc2)C2(O)C(=O)Nc3c2ccc(Cl)c3C)cc1 (centres undefined) ?
Ans. > 100 µM (inactive)

====

System: CAKI-1
Test: NCI tumour cell line growth inhibition, 48 h
The source made the active and inactive calls. No stated cut-off is given here; in the data, active = GI50 up to about 1.1 µM and inactive = higher.
For each entry below, report its GI50 value.

Qu. Query (compound): CC1(C)C(=O)/C=C\C(=O)C(C)(C)C2=CC=C(O2)C(C)(C)C(=O)C(Br)C(Br)C(=O)C(C)(C)C2=CC=C1O2 (stereo unspecified) ; field requested: GI50
Ans. 58.6 µM (inactive)

Qu. Okay, and `O=C(N/C(=C\c1cccc([N+](=O)[O-])c1)c1nc2ccccc2[nH]1)c1ccccc1` ?
Ans. 59.4 µM (inactive)

Qu. Okay, and COC1=C(OC)C23CCc4ccc(OC)c(O)c4C2(CCN3)CC1=O (stereo unspecified) ?
Ans. > 100 µM (inactive)

Qu. Okay, and `O=C(c1ccccc1)[C@@H]1C[C@H](Sc2ccccc2)c2cc(Cl)ccc2N1` ?
Ans. 42.2 µM (inactive)

Qu. Okay, and `CC(C)CC(=O)OC[n+]1cccc(-c2c(COC(=O)NC(C)C)c(COC(=O)NC(C)C)c3n2CCC3)c1` ?
Ans. 17.2 µM (inactive)

Qu. Okay, and `CCOC(=O)/C(=C/Nc1c(C)n(C)n(-c2ccccc2)c1=O)C(C)=O` ?
Ans. > 100 µM (inactive)

====

Tested on: RPMI-8226
Test: NCI tumour cell line growth inhibition, 48 h
The source made the active and inactive calls. No stated cut-off is given here; in the data, active = GI50 up to about 1.1 µM and inactive = higher.
measured metric: GI50

Qu. Query (compound): `O=C(Cn1c2ccc(Br)cc2c2nc3ccccc3nc21)NNC(=S)NC1CCCCC1` ; field requested: GI50
Ans. 13.9 µM (inactive)

Qu. Okay, and `COC(=O)c1ccc(NCc2c(O)ccc(O)c2Br)cc1Cl` ?
Ans. 3.56 µM (inactive)

Qu. Okay, and CC1(C)Cc2ccccc2C(C)(Cl)C(=O)N1 (centres undefined) ?
Ans. > 10 µM (inactive)

Qu. Okay, and `Cc1ccc(O)c(Cc2nc3ccccc3nc2-c2cccc(Br)c2)c1` ?
Ans. 47.3 µM (inactive)

Qu. Okay, and NC1=NCC(CN2CCCC2)O1 (centres undefined) ?
Ans. > 100 µM (inactive)

Qu. Okay, and `CC(C)(C)c1cc2c(O)c(c1)COCc1cc(C(C)(C)C)cc(c1O)COCc1cc(C(C)(C)C)cc(c1O)COC2` ?
Ans. 50.4 µM (inactive)

Qu. Okay, and `Cc1cc(NS(=O)(=O)c2ccc(Nc3c4ccccc4nc4c(C(=O)NC(CO)(CO)CO)cccc34)cc2)no1` ?
Ans. 19.7 µM (inactive)

Qu. Okay, and `Nc1nnnn1CCO` ?
Ans. > 100 µM (inactive)

Qu. Okay, and CC(NC(=O)c1c(O)[nH]c(=S)[nH]c1=O)c1ccc([N+](=O)[O-])cc1 (centres undefined) ?
Ans. > 100 µM (inactive)

Qu. Okay, and `Cc1ncc([N+](=O)[O-])n1CCNC(=O)CCn1ccnc1[N+](=O)[O-]` ?
Ans. > 100 µM (inactive)

Qu. Okay, and `Cc1nccc2c1cnc1ccnn12` ?
Ans. > 100 µM (inactive)

Qu. Okay, and CCCCN(CCCC)CC(O)c1cc(-c2ccc(Cl)c(Cl)c2)nc2c(Cl)cc(Cl)cc12 (centres undefined) ?
Ans. 37.1 µM (inactive)

Qu. Okay, and `O=C(CSc1nc2ccc(I)cc2c(=O)n1Cc1ccccc1)NN1C(=O)c2ccccc2C1=O` ?
Ans. 33.3 µM (inactive)

Qu. Okay, and `CCOc1ccc2[nH]c3c(C)c4ccncc4c(C)c3c2c1` ?
Ans. 1.36 µM (inactive)

Qu. Okay, and `Cc1cc(C)nc(NS(=O)(=O)c2ccc(NC(=O)c3cccc4c(Nc5ccc(S(=O)(=O)N=C(N)N)cc5)c5ccccc5nc34)cc2)n1` ?
Ans. 15.1 µM (inactive)

Qu. Okay, and N#CC1=C(N)Nc2nc3ccccc3n2C1c1ccccc1 (centres undefined) ?
Ans. 6.41 µM (inactive)

Qu. Okay, and Nc1cccc(OCC2CCCN3CCCCC23)c1 (centres undefined) ?
Ans. 15.2 µM (inactive)

Qu. Okay, and `C#CCn1c2c(c3ccccc3c1=O)C(=O)c1ccccc1-2` ?
Ans. 13 µM (inactive)

Qu. Okay, and `CC(C)CCc1c(Cl)nc(Cl)nc1Cl` ?
Ans. 30.7 µM (inactive)

====

Tested on: UACC-257
Assay: NCI tumour cell line growth inhibition, 48 h
The source made the active and inactive calls. Rule as the data show it: active = GI50 up to about 1.1 µM and inactive = higher.
Outcomes you can answer with include only these: active, inactive

Qu. Can you look up the reported call for `CC(C)C[C@H](NC(=O)[C@@H](N)Cc1cccc2ccccc12)B(O)O` for me?
Ans. active

Qu. Okay, and COC1(OC)CC2C(=O)N(Cc3ccccc3)C1C=C2S(=O)(=O)c1ccccc1 (stereo not drawn) ?
Ans. inactive

Qu. Okay, and `CC(=O)Nn1cnc(C(=N)C#N)c1N` ?
Ans. inactive

Qu. Okay, and COC(=O)C1=C(c2cc(OC)c(OC)c(OC)c2)OC(c2ccc3c(c2)OCO3)C1 (stereo not drawn) ?
Ans. inactive

Qu. Okay, and `COC(=O)c1nc(-c2ccc(Cl)c(Cl)c2)nc2ccc(Cl)cc12` ?
Ans. inactive

Qu. Okay, and `CC(=O)O[C@@H](c1nccn1Cc1ccccc1)[C@H]1OC(C)(C)O[C@@H]1[C@H]1COC(C)(C)O1` ?
Ans. inactive

Qu. Okay, and `O=C1Nc2ccccc2/C1=N/NC(=S)NCc1ccccn1` ?
Ans. active

Qu. Okay, and CCSc1nc(-c2ccc(OC)cc2)c(C#N)c(=O)n1C1OCC(OC(C)=O)C(OC(C)=O)C1OC(C)=O (stereo not drawn) ?
Ans. inactive

====

For each entry below, report its GI50 value.
Tested on: UACC-62
Test: NCI tumour cell line growth inhibition, 48 h
Active and inactive are the calls of the source. No stated cut-off is given here; in the data, active = GI50 up to about 1.1 µM and inactive = higher.

Qu. Query (molecule): O=C(Nc1ccc([N+](=O)[O-])cc1[N+](=O)[O-])C(=O)C(C(=O)c1ccc2ccccc2c1)C1OC(=O)c2ccccc21 (centres undefined) ; field requested: GI50
Ans. 16.6 µM (inactive)

Qu. Okay, and O=[N+]([O-])C1(CO)COC(CCc2ccccc2)OC1 (centres undefined) ?
Ans. > 100 µM (inactive)

Qu. Okay, and `CCOC(=O)c1ccc(C(=O)/C(C#N)=C2\CCCN2C)[nH]1` ?
Ans. > 100 µM (inactive)

Qu. Okay, and `CSc1c(C#N)c(N)n2c1C(=O)N(c1ccccc1)C2=S` ?
Ans. > 100 µM (inactive)

The reported numbers originate from ChEMBL document CHEMBL1201862.
